test system: Kelly Neuroblastoma cells; assay: ATPlite Luminescence viability assay, Kelly neuroblastoma cells, 72 h; type: cell-based; settings: Kelly Neuroblastoma cells, ATPlite, class symbols, read-out: IC50 of inventive bispecific compounds
pIC50: −log10 of the molar value.
Recorded measurements of pIC50, one per entry

[[record]]
compound = "Cc1noc(C)c1-c1ccn2c(NC3CCCCC3)c(CCc3ccc(NC(=O)CCOCCOCCOCCNc4cccc5c4C(=O)N(C4CCC(=O)NC4=O)C5=O)cc3)nc2c1 (stereo not shown)"
val = "6.00 to 7.00"


stdin: For the compound COc1ccc(CCc2nc3cc(-c4c(C)noc4C)ccc3n2C[C@H](C)N2CCN(C(=O)CCCCCNc3ccc4c(c3)C(=O)N(C3CCC(=O)NC3=O)C4=O)CC2)cc1Cl (stereo partly shown) , what pIC50 is on record?
stdout: < 5.00

stdin: For the compound Cc1noc(C)c1-c1ccc2nc(-c3ccc(N4CCN(C(=O)CCOCCOCCOCCNC(=O)COc5cccc6c5C(=O)N(C5CCC(=O)NC5=O)C6=O)CC4)cc3)c(NC3CCCCC3)n2c1 (stereo not shown) , what pIC50 is on record?
stdout: < 5.00

stdin: For the compound Cc1noc(C)c1-c1ccn2c(NCc3ccccc3)c(-c3ccc(N4CCN(C(=O)COc5cccc6c5C(=O)N(C5CCC(=O)NC5=O)C6=O)CC4)cc3)nc2c1 (stereo not shown) , what pIC50 is on record?
stdout: > 7.00
